# tested_system: human TLR8 (Homo sapiens, UniProt Q9NR97)
# Sequence (Q9NR97 27-1041): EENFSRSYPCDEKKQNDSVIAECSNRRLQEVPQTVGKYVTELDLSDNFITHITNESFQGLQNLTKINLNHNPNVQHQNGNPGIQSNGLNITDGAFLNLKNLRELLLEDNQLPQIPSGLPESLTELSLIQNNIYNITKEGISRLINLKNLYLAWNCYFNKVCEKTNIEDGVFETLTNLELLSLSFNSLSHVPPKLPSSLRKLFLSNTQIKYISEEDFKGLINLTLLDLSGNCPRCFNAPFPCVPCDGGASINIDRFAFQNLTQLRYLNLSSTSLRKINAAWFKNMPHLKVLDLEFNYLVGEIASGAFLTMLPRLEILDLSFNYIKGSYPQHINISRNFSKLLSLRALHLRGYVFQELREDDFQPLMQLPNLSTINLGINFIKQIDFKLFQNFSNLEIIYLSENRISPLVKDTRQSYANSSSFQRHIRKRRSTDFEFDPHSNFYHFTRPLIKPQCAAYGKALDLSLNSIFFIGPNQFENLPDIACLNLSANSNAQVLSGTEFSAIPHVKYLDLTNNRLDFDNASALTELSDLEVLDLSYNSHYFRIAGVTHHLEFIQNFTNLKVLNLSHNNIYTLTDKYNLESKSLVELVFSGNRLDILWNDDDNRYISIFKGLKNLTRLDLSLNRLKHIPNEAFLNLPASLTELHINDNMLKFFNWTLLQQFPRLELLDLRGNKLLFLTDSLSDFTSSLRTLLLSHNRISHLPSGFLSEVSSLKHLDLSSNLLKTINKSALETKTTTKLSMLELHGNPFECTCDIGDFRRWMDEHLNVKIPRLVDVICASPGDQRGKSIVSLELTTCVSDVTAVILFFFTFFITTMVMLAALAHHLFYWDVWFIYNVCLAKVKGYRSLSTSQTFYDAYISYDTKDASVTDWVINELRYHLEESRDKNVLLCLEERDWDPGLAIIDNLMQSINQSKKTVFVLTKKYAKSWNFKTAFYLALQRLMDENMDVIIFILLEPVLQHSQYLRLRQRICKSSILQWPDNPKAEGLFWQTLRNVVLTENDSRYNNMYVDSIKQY
# assay_name: TLR8 inhibition reporter assay (HEK-Blue cells, SEAP reporter, R848 stimulation)
# test_context: HEK-Blue cells overexpressing human TLR8, SEAP reporter, R848 15.9 μM
property: IC50

Here are 5 compounds together with their reported answers.
[[record]]
structure = "CC(C)c1c(-c2cn3ccnc3cc2Cl)[nH]c2ccc(C3CCNCC3)cc12"
result = "< 0.1 µM"

[[record]]
structure = "COc1ccc2nc(Cl)c(CN3CCC(c4ccc5[nH]c(-c6ccnc7[nH]ncc67)c(C(C)C)c5c4)CC3)cc2c1"
result = "0.1 to 1 µM"

[[record]]
structure = "CC(C)c1c(-c2cn3ccnc3cc2C(F)(F)F)[nH]c2ccc(C3CCNCC3)cc12"
result = "< 0.1 µM"

[[record]]
structure = "Cc1cn2cc(-c3[nH]c4ccc(C5CCNCC5)cc4c3C(C)C)cc(C(F)(F)F)c2n1"
result = "0.1 to 1 µM"

[[record]]
structure = "CCc1c(-c2ccn3ccnc3c2)[nH]c2ccc(C3CCNCC3)cc12"
result = "1 to 50 µM"


Record IC50 per entry; entries follow.
1. CNC(=O)CN1CCC(c2ccc3[nH]c(-c4cc(C)n5nc(C)cc5c4)c(C(C)C)c3c2)CC1
2. CC(C)c1c(-c2ccnc3[nH]ncc23)[nH]c2ccc(C3CCN(CCCN4CCCCC4)CC3)cc12
3. CCc1c(-c2ccnc3[nH]ncc23)[nH]c2ccc(C3CCN(Cc4cc(-c5ccccc5)on4)CC3)cc12

Response:
1. 0.1 to 1 µM
2. 0.1 to 1 µM
3. 0.1 to 1 µM
